# TARGET_OR_SYSTEM: PDZRN4_1, Q6ZMN7
# Sequence (Q6ZMN7 213-318): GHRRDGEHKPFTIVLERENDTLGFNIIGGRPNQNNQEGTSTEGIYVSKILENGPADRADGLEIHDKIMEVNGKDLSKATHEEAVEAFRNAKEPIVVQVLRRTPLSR
# ASSAY_PROCEDURE: holdup assay
# Parameters: key: below the threshold = too weak to quantify, mostly under pKd 3.1 to 4
# APPLIED_CONDITIONS: plain residues with an end cap or a label only (N-terminal biotin on a linker: ado-ado)
MEASURE_NAME: pKd

Examples with answers:
>  <BINDER>
EVEEFPETSV [TRPV3, Q8NET8]

>  <MEASURED_VALUE>
4.98

$$$$
>  <BINDER>
QSLNRMEYIV [JAG1, P78504]

>  <MEASURED_VALUE>
below the threshold

$$$$
>  <BINDER>
IKAIVDLTGL [TRAF2, Q12933]

>  <MEASURED_VALUE>
below the threshold

$$$$
>  <BINDER>
SGSLKLMTTV [DACT1, Q9NYF0]

>  <MEASURED_VALUE>
below the threshold

$$$$
>  <BINDER>
YLEPVLSSEL [ATP2A2, P16615;P16615-3]

>  <MEASURED_VALUE>
below the threshold

$$$$
>  <BINDER>
TSSMRGMDAV [RSRC2, Q7L4I2]

>  <MEASURED_VALUE>
below the threshold

$$$$
>  <BINDER>
PRISRSQSEL [CCDC134, Q9H6E4]

>  <MEASURED_VALUE>
below the threshold

$$$$
>  <BINDER>
SKENVQETQI [LRRC4B, Q9NT99]

>  <MEASURED_VALUE>
4.18

$$$$

Query (binder): YYKRPVQEWV [MMP24, Q9Y5R2] ; field requested: pKd below the threshold

Could you do the same for RRLPGKETMA [GRIK2, Q13002] , please? below the threshold

Could you do the same for QSARLWETSI [ADAM22, Q9P0K1] , please? 5

Could you do the same for DDEDRLVIEI [ZNF831, Q5JPB2] , please? below the threshold

Could you do the same for PLSPEQPTKL [TRIM50, Q86XT4] , please? below the threshold

Could you do the same for NLSIEKETKL [ASNSD1, Q9NWL6] , please? 4.83

Could you do the same for PDGQCTVTEV [RNF146, Q9NTX7] , please? below the threshold

Could you do the same for LPHGHSTTRV [NLGN4X, Q8N0W4] , please? below the threshold

Could you do the same for SSALYGESDL [ACTN2, P35609] , please? 3.62

Could you do the same for TKGPRGPTRV [SAPCD1, Q5SSQ6] , please? 3.67

Could you do the same for ETQVTAETVI [TMEM225B, P0DP42] , please? below the threshold

Could you do the same for TPPAAKKSRI [BAZ1A, Q9NRL2] , please? below the threshold

Could you do the same for QSPANIYYKV [EFNB1, P52799] , please? below the threshold

Could you do the same for TSQESEDTYL [TBC1D10A, Q9BXI6] , please? 3.8

Could you do the same for VDSTVKVWTC [TRAF7, Q6Q0C0] , please? below the threshold

Could you do the same for SARSRLSSNL [HCN2, Q9UL51] , please? 3.53

Could you do the same for LGRSTPQSEV [DGKH, Q86XP1] , please? below the threshold

Could you do the same for KKMPSIESDV [GRIN2A, Q12879] , please? below the threshold
